Target: GNB2L1 C182 (P63244) (Homo sapiens, UniProt P63244)
Protocol notes: Competitive isoTOP-ABPP, cell lysates
Assay type: binding
Experimental context: 500 μm, in-vitro_ramos
Description: TEV digests were pressure loaded onto a 250 μm (inner diameter) fused silica capillary column packed with C18 resin (Aqua 5 μm, Phenomenex). The samples were analyzed by multidimensional liquid chromatography tandem mass spectrometry (MudPIT), using an LTQ-Velos Orbitrap mass spectrometer (Thermo Scientific) coupled to an Agilent 1200-series quaternary pump. […]
Measured attribute: isoTOP-ABPP reactivity ratio, P63244_C182

**Query** Query: isoTOP-ABPP reactivity ratio, P63244_C182; subject: O=C(CCl)Nc1ccccc1C1CCCCCC1
**Result** 0.9

**Query** Field entry: C=CC(=O)N1CCC(c2noc3ccc(F)cc23)CC1
**Result** 0.9

**Query** Field entry: Cc1ccc(C=C(C#N)C(=O)NCCN2CCOCC2)cc1
**Result** 4.7

**Query** Field entry: CCN(CC)c1ccc(S(N)(=O)=O)cc1NC(=O)CCl
**Result** 1.6

**Query** Field entry: C=CC(=O)Nc1cc(C)c(Br)cc1C
**Result** 0.6

====

Kindly supply the reported isoTOP-ABPP reactivity ratio, O75874_C269 values for the records listed here.
Target: IDH1 C269 (O75874) (Homo sapiens, UniProt O75874)
Sequence (O75874 whole entry): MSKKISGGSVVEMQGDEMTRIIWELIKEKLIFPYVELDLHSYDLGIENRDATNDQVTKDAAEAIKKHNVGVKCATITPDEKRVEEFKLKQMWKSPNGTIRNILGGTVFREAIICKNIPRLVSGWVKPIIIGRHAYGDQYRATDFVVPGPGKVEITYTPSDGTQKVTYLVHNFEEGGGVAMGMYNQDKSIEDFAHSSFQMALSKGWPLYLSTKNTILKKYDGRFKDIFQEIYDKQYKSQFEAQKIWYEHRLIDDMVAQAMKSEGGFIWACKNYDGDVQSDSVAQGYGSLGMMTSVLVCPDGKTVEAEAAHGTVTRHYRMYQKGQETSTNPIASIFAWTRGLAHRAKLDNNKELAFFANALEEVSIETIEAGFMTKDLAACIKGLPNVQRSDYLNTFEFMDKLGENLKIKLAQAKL
Protocol notes: Competitive isoTOP-ABPP, cell lysates
Type: binding
Experimental context: 500 μm, in-vitro_ramos_231
// response body must contain only the number

**Query** Lab note: need isoTOP-ABPP reactivity ratio, O75874_C269 for C=CC(=O)Nc1cc(F)c(N2CCN(C(=O)OC(C)(C)C)CC2)c(F)c1 on IDH1 C269 (O75874) (Homo sapiens, UniProt O75874), anyone have it?
**Result** 0.7

**Query** Field entry: C=CC(=O)N(Cc1cccnc1)c1cc(C(F)(F)F)cc(C(F)(F)F)c1
**Result** 0.4

**Query** Field entry: Cc1ccc(C=C(C#N)C(=O)NCCN2CCOCC2)cc1
**Result** 0.8

**Query** Field entry: O=C(CCl)Nc1cc(C(=O)O)cc(C(F)(F)F)c1
**Result** 1.7

====

Target: cysteines in MDA-MB-231 and Ramos cells (Homo sapiens, UniProt Q9NUY8)
Sequence (Q9NUY8 whole entry, the tested form may be a part): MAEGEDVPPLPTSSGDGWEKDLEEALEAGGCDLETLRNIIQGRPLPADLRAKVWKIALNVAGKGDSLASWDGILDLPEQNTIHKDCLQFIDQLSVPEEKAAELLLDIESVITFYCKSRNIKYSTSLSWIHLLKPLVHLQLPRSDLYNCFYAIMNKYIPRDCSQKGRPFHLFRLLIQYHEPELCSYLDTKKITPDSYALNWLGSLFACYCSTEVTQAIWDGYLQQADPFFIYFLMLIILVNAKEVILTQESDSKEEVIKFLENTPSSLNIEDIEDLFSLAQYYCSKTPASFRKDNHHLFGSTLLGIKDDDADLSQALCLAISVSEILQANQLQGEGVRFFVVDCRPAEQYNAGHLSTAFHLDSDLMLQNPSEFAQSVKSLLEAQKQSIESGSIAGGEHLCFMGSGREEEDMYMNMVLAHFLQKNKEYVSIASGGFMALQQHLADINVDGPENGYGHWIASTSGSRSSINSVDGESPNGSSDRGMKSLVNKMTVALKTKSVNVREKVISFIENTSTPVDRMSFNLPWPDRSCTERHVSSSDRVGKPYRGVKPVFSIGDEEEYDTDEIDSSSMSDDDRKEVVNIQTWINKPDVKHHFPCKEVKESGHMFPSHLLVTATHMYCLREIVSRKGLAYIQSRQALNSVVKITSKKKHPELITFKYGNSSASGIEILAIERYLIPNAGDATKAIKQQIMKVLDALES
Protocol notes: Competitive isoTOP-ABPP in situ (fragment-treated cells)
Assay type: cell-based
Experimental context: 200 μM, insitu, 231
Measured attribute: isoTOP-ABPP ratio Q9NUY8_C283
// response body must contain only the number

**Query** Query: isoTOP-ABPP ratio Q9NUY8_C283; subject: CC(C)CCOCCNC(=O)CCl
**Result** 0.6

**Query** Field entry: O=C(CCl)NC12CC3CC(CC(C3)C1)C2
**Result** 0.8

**Query** Field entry: O=C(CCl)NCCc1c[nH]c2ccccc12
**Result** 1.1

**Query** Field entry: Cc1ccc(C=C(C#N)C(=O)NCCN2CCOCC2)cc1
**Result** 0.7

**Query** Field entry: COc1ccccc1OCCNC(=O)CCl
**Result** 0.7

**Query** Field entry: O=C(CCl)N1CCN(S(=O)(=O)c2ccccc2F)CC1
**Result** 2.0

**Query** Field entry: C=CC(=O)N(Cc1cccnc1)c1cc(C(F)(F)F)cc(C(F)(F)F)c1
**Result** 0.6

**Query** Field entry: CC1CCc2ccccc2N1C(=O)CCl (centres unmarked)
**Result** 2.7

**Query** Field entry: C=CC(=O)Nc1cc(F)c(N2CCN(C(=O)OC(C)(C)C)CC2)c(F)c1
**Result** 1.0

**Query** Field entry: O=C(CCl)NC(=O)NC12CC3CC(CC(C3)C1)C2
**Result** 2.9

**Query** Field entry: O=C(CCl)Nc1cccc2ncccc12
**Result** 2.1
